biological target: human mesothelin (MSLN) (human) (UniProt Q13421); test: BLI (Octet), multiple concentrations, bsAb in 1+1 Fab-scFv-Fc format
OBSERVABLE: Response
Respond numerically, and do not add a unit to the figure.

Request: What value of Response has been reported for the following binder? XENP32939 (bispecific antibody, part only; not given: anti-CD3 scFv-Fc arm, constant regions, V domains shown, not shown: another chain or arm of the molecule; a dimerising Fc or GST; small tags and cut ends) VH: QVQLVQSGAEVKKPGASVKVSCKASGYTFTSYWMHWVRQAPGQGLEWMGWIHPNSDNTIYYEKFQGRVTMTVDKSISTAYMELSRLRSDDTAVYYCAIIITPVVPKFDYWGQGTLVTVSS VL: DIVMTQSPDSLAVSLGERATINCKASHDVGQSVAWYQQKPGQSPKLLIYWASTRHTGVPDRFTGSGSGTDFTLTISSLQAEDVAVYFCQQYSSYPLTFGAGTKLEIK
Result: 0.202

Request: What value of Response has been reported for the following binder? XENP32940 (bispecific antibody, part only; not given: anti-CD3 scFv-Fc arm, constant regions, V domains shown, not shown: another chain or arm of the molecule; a dimerising Fc or GST; small tags and cut ends) VH: QVQLVQSGAEVKKPGASVKVSCKASGYTFTSYWMHWVRQAPGQGLEWMGWIHPNSDNTIYYEKFQGRVTMTVDKSISTAYMELSRLRSDDTAVYYCAIIITPVVPKFDYWGQGTLVTVSS VL: DIVMTQSPDSLAVSLGERATINCKASHDVGTSVAWYQQKPGQSPKLLIYWASTRHTGVPDRFTGSGSGTDFTLTISSLQAEDVAVYFCQQYSSFPLTFGAGTKLEIK
Result: 0.136

Request: What value of Response has been reported for the following binder? XENP32943 (bispecific antibody, part only; not given: anti-CD3 scFv-Fc arm, constant regions, V domains shown, not shown: another chain or arm of the molecule; a dimerising Fc or GST; small tags and cut ends) VH: QVQLVQSGAEVKKPGASVKVSCKASGYTFTSYWMHWVRQAPGQGLEWMGWIHPNSDNTIYYEKFQGRVTMTVDKSISTAYMELSRLRSDDTAVYYCAIIITPVVPKFDYWGQGTLVTVSS VL: DIVMTQSPDSLAVSLGERATINCKASHDVGTSVAWYQQKPGQSPKLLIYWASTRHTGVPDRFTGSGSGTDFTLTISSLQAEDVAVYFCQQYSSIPLTFGAGTKLEIK
Result: 0.0022

Data origin, for the record: patent US20230340128A1
